Values compiled from the RNAGym collection of RNA variant scans (doi:10.7554/elife.80360).

B1: HDV Ribozyme (parent)
chain: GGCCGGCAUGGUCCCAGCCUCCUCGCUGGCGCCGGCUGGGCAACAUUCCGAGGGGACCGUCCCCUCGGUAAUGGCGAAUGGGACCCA

Variants of: B1
Assay: self-cleavage, relative activity (ratio to wild type); higher = more cleavage; co-transcriptional
Quantity measured: self-cleavage
Lab note: write the figure by itself, no unit.

These solved cases illustrate the format of a correct answer.
>>> df
   variant_string    val
0       C19A G28U   0.79
1       G11C U27G  0.356
2       A77U A78C  0.332
3       U60A A87C      1

Looking for the measured self-cleavage of C3G U69C , can you help?
0.653

Looking for the measured self-cleavage of C3A U23G , can you help?
0.352

Looking for the measured self-cleavage of C22U U37C , can you help?
0.415

Looking for the measured self-cleavage of A51G A70G , can you help?
1.16

Looking for the measured self-cleavage of C58U G74C , can you help?
0.227

Looking for the measured self-cleavage of A16G G38U , can you help?
0.341
